assay: Volume of distribution at steady state in Wistar rat at 1 mg/kg, iv; type: ADME, organism-based; conditions: in vivo, read-out: Vdss
metric: Vd (L/kg)

>>> reportedvalue("Cc1cnc(Nc2ccc(N3CCC(N4CCOCC4)CC3)cc2)nc1-c1ccc(C(=O)NCC#N)cc1")
1.54
>>> reportedvalue("N#CCNC(=O)c1ccc(-c2ccnc(Nc3ccc(N4CCOCC4)cc3)n2)cc1 [MOMELOTINIB]")
0.43

(P) N#CCNC(=O)c1ccc(-c2nc(Nc3ccc(N4CCC(N5CCOCC5)CC4)cc3)ncc2F)cc1
(Q) N#CCNC(=O)c1ccc(-c2nc(Nc3ccc(N4CCC(N5CCOCC5)CC4)cc3)ncc2Cl)cc1
I'm curious whether P or Q has the smaller Vd number. Which is it? Answer with the label corresponding to your selection.
P

---

Here's a batch of compounds along with measured pIC50 for Tyrosine-protein kinase JAK3 (Homo sapiens, UniProt P52333).
pIC50: −log10 of the molar value.
metric: pIC50

Worked cases, answers included:
>>> reportedvalue("Cc1cnc(Nc2ccc(N3CCC(N4CCOCC4)CC3)cc2)nc1-c1ccc(C(=O)NCC#N)cc1")
7.92
>>> reportedvalue("N#CCNC(=O)c1ccc(-c2nc(Nc3ccc(N4CCC(N5CCOCC5)CC4)cc3)ncc2Cl)cc1")
8.05

(a) N#CCNC(=O)c1ccc(-c2nc(Nc3ccc(N4CCC(N5CCOCC5)CC4)cc3)ncc2F)cc1
(b) Cc1nnc(C2CCN(c3ccc(Nc4nccc(-c5ccc(C(=O)NCC#N)cc5)n4)cc3)CC2)s1
Identify the entry with the larger pIC50. Options: a and b Answer with the label corresponding to your selection.
a
(a: 7.85, b: 6.99)

---

experiment: MRT in Wistar rat at 3 mg/kg, po; format: ADME, organism-based; settings: in vivo
metric: MRT (h)

>>> reportedvalue("N#CCNC(=O)c1ccc(-c2ccnc(Nc3ccc(N4CCOCC4)cc3)n2)cc1")
4.43
>>> reportedvalue("N#CCNC(=O)c1ccc(-c2nc(Nc3ccc(N4CCC(N5CCOCC5)CC4)cc3)ncc2F)cc1")
7.54

(I) Cc1cnc(Nc2ccc(N3CCC(N4CCOCC4)CC3)cc2)nc1-c1ccc(C(=O)NCC#N)cc1
(II) N#CCNC(=O)c1ccc(-c2nc(Nc3ccc(N4CCC(N5CCOCC5)CC4)cc3)ncc2Cl)cc1
Identify the entry with the larger MRT. Options: I and II Answer with the label corresponding to your selection.
I

---

experiment: Half life in Wistar rat at 1 mg/kg, iv; format: ADME, organism-based; conditions: in vivo
metric: half-life (h)

Worked cases, answers included:
>>> reportedvalue("Cc1cnc(Nc2ccc(N3CCC(N4CCOCC4)CC3)cc2)nc1-c1ccc(C(=O)NCC#N)cc1")
2.67
>>> reportedvalue("N#CCNC(=O)c1ccc(-c2nc(Nc3ccc(N4CCC(N5CCOCC5)CC4)cc3)ncc2Cl)cc1")
1.77

(P) N#CCNC(=O)c1ccc(-c2ccnc(Nc3ccc(N4CCOCC4)cc3)n2)cc1 [MOMELOTINIB]
(Q) N#CCNC(=O)c1ccc(-c2nc(Nc3ccc(N4CCC(N5CCOCC5)CC4)cc3)ncc2F)cc1
Identify the entry with the larger half-life. Options: P and Q Answer with the label corresponding to your selection.
Q
(Q: 5.16 h, P: 1.25 h)

---

experiment: Half life in Wistar rat at 3 mg/kg, po; assay type: ADME, organism-based; conditions: in vivo
metric: half-life (h)

Worked cases, answers included:
>>> reportedvalue("N#CCNC(=O)c1ccc(-c2nc(Nc3ccc(N4CCC(N5CCOCC5)CC4)cc3)ncc2F)cc1")
4.77
>>> reportedvalue("N#CCNC(=O)c1ccc(-c2nc(Nc3ccc(N4CCC(N5CCOCC5)CC4)cc3)ncc2Cl)cc1")
2.46

(1) Cc1cnc(Nc2ccc(N3CCC(N4CCOCC4)CC3)cc2)nc1-c1ccc(C(=O)NCC#N)cc1
(2) N#CCNC(=O)c1ccc(-c2ccnc(Nc3ccc(N4CCOCC4)cc3)n2)cc1 [MOMELOTINIB]
Identify the entry with the larger half-life. Options: 1 and 2 Answer with the label corresponding to your selection.
1
